- Test system: influenza A virus A/Vic/3/75 (H3N2)
- test: In vitro antiviral bioassay (CPE reduction, SRB) in MDCK cells
- Format: cell-based
- condition_notes: Influenza A virus, H3N2, MDCK, 48 h
For each record, write down the corresponding IC50.
One number for each entry, in µg/mL.

Below are some molecules; for each one, tell me its IC50.
1. COc1ccc2cc3[n+](cc2c1OCCCCCNc1nc2c(F)cc(F)cc2s1)CCc1cc2c(cc1-3)OCO2 [BBD 11]
2. COc1ccc2cc3[n+](cc2c1OCCCCCNc1nc2ccccc2s1)CCc1cc2c(cc1-3)OCO2 [BBD 1]
3. COc1ccc2cc3[n+](cc2c1OCCCCCNc1nc2ccc(C(F)(F)F)cc2s1)CCc1cc2c(cc1-3)OCO2 [BBD 12]
4. COc1ccc2cc3[n+](cc2c1OCCCCCNc1nc2ccc(C(=O)O)cc2s1)CCc1cc2c(cc1-3)OCO2 [BBD 3]

## Output
1. 48.4
2. 45.1
3. 44.6
4. 60.7

====

For each record, write down the corresponding TI B/LEE/40.
- Test system: influenza B virus B/Lee/40
- test: In vitro antiviral bioassay (CPE reduction, SRB) in MDCK cells
- Format: cell-based
- condition_notes: Therapeutic index, TI = CC50/IC50
One number for each entry.

Would you please look over these solved cases?
{"columns": ["molecule", "TI B/LEE/40"],
 "data": [
  ["COc1ccc2cc3[n+](cc2c1OC)CCc1cc2c(cc1-3)OCO2 [BERBERINE, Berberine]", 1.07],
  ["COc1ccc2cc3[n+](cc2c1OCCCCCNc1nc2ccc(C(=O)O)cc2s1)CCc1cc2c(cc1-3)OCO2 [BBD 3]", 7.105],
  ["COc1ccc2cc3[n+](cc2c1OCCCCCNc1nc2ccccc2s1)CCc1cc2c(cc1-3)OCO2 [BBD 1]", 7.874],
  ["COc1ccc2cc3[n+](cc2c1OCCCCCNNc1nc2ccccc2s1)CCc1cc2c(cc1-3)OCO2 [BBD 14]", 4.327],
  ["COc1ccc2cc3[n+](cc2c1OCCCCCNc1nc2ccc(C(F)(F)F)cc2s1)CCc1cc2c(cc1-3)OCO2 [BBD 12]", 4.468]
]}

# return TI B/LEE/40 for each item in the list
1. COc1ccc2cc3[n+](cc2c1OCCCCCNc1nc2c(F)cc(F)cc2s1)CCc1cc2c(cc1-3)OCO2 [BBD 11]
2. COc1ccc2cc3[n+](cc2c1OCCCCCNc1nc2ccc(F)cc2s1)CCc1cc2c(cc1-3)OCO2 [BBD 10]

## Output
1: 5.494; 2: 4.812

====

Provide the recorded CC50 for the entries that follow.
- System: MDCK cells
- condition_notes: dog, 48 h
One number for each entry, in µg/mL.

See these solved cases before continuing.
{"columns": ["smiles_entry", "result"],
 "data": [
  ["COc1ccc2cc3[n+](cc2c1OCCCCCNc1nc2ccc(F)cc2s1)CCc1cc2c(cc1-3)OCO2", 310.6],
  ["COc1ccc2cc3[n+](cc2c1OCCCCCNc1nc2ccc(I)cc2s1)CCc1cc2c(cc1-3)OCO2", 302.5],
  ["COc1ccc2cc3[n+](cc2c1OCCCCCNc1nc2ccc(C(F)(F)F)cc2s1)CCc1cc2c(cc1-3)OCO2", 302.3]
]}

Look up CC50 for the entries below, preserving their order.
1. COc1ccc2cc3[n+](cc2c1OCCCCCNc1nc2ccccc2s1)CCc1cc2c(cc1-3)OCO2
2. COc1ccc2cc3[n+](cc2c1OCCCCCNc1nc2c(F)cc(F)cc2s1)CCc1cc2c(cc1-3)OCO2

## Output
436.7
467.7

====

Would you kindly list activity at 0.1 µg/mL for each of these compounds?
- subject_of_test: influenza virus neuraminidase (Influenza A virus, UniProt P03468)
- Sequence (P03468 whole entry, looked up): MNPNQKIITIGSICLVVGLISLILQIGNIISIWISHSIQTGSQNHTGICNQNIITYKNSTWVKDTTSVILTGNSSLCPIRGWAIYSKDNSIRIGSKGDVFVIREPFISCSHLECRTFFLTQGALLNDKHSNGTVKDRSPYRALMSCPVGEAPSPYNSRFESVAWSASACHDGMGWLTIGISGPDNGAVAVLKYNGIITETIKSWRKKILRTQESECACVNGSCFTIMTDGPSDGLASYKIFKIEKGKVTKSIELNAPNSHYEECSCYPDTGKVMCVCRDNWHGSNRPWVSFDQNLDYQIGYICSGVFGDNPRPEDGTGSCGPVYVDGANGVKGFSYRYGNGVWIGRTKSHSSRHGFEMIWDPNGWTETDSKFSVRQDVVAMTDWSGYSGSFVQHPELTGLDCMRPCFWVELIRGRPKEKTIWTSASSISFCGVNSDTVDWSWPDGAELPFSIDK
- test: Viral neuraminidase inhibition assay (NA-Star kit)
- Format: biochemical, influenza A/PR/8/34 virus
- condition_notes: at 0.1 μg/mL; (Treatment/Virus) × 100, remaining activity
Answers are plain numbers, in %.

# annotated cases, reported activity at 0.1 µg/mL shown
{"columns": ["compound", "property", "result"],
 "data": [
  ["COc1ccc2cc3[n+](cc2c1OCCCCCNc1nc2ccc(Cl)cc2s1)CCc1cc2c(cc1-3)OCO2", "activity at 0.1 µg/mL", 37.4],
  ["COc1ccc2cc3[n+](cc2c1OCCCCCNc1nc2ccccc2s1)CCc1cc2c(cc1-3)OCO2", "activity at 0.1 µg/mL", 40.3],
  ["COc1ccc2cc3[n+](cc2c1OCCCCCNc1nc2c(F)cc(F)cc2s1)CCc1cc2c(cc1-3)OCO2", "activity at 0.1 µg/mL", 40.8]
]}

## Input // query activity at 0.1 µg/mL value for entry CCOC(=O)C1=C[C@@H](OC(CC)CC)[C@H](NC(C)=O)[C@@H](N)C1 [OSELTAMIVIR, Oseltamivir phosphate, reference compound]
## Output 39.1

====

- test: Cytotoxicity on MDCK cells, SRB method
- condition_notes: dog
property: CC50 at 48 h (µg/mL)
Answers are plain numbers, in µg/mL.

## Input # get_value(readout='CC50 at 48 h', item= COc1ccc2cc3[n+](cc2c1OC)CCc1cc2c(cc1-3)OCO2 [BERBERINE, Berberine] )
## Output 65.3

====

- Test system: influenza B virus B/Lee/40
- test: In vitro antiviral bioassay (CPE reduction, SRB) in MDCK cells
- Type: cell-based
- condition_notes: Influenza B virus; MDCK cells, 50 TCID50, 48 h, mean ± S.D., triplicate
Record form. Attribute: IC50. Fill in for each entry.
Give bare numbers, in µg/mL.

# annotated cases, reported IC50 shown
{"columns": ["compound", "property", "result"],
 "data": [
  ["COc1ccc2cc3[n+](cc2c1OCCCCCNc1nc2ccc(Br)cc2s1)CCc1cc2c(cc1-3)OCO2 [BBD 8]", "IC50", 74.8],
  ["COc1ccc2cc3[n+](cc2c1OCCCCCNc1nc2ccccc2s1)CCc1cc2c(cc1-3)OCO2 [BBD 1]", "IC50", 55.5],
  ["COc1ccc2cc3[n+](cc2c1OCCCCCNc1nc2ccc([N+](=O)[O-])cc2s1)CCc1cc2c(cc1-3)OCO2 [BBD 2]", "IC50", 61.7],
  ["COc1ccc2nc(NCCCCCOc3c(OC)ccc4cc5[n+](cc34)CCc3cc4c(cc3-5)OCO4)sc2c1 [BBD 5]", "IC50", 36.9],
  ["COc1ccc2cc3[n+](cc2c1OCCCCCNNc1nc2ccccc2s1)CCc1cc2c(cc1-3)OCO2 [BBD 14]", "IC50", 70.3],
  ["CCOc1ccc2nc(NCCCCCOc3c(OC)ccc4cc5[n+](cc34)CCc3cc4c(cc3-5)OCO4)sc2c1 [BBD 6]", "IC50", 38.8]
]}

// for each compound below, give its IC50
1. COc1ccc2cc3[n+](cc2c1OCCCCCNc1nc2ccc(Cl)cc2s1)CCc1cc2c(cc1-3)OCO2 [BBD 7]
2. CCOC(=O)C1=C[C@@H](OC(CC)CC)[C@H](NC(C)=O)[C@@H](N)C1 [OSELTAMIVIR, Oseltamivir phosphate, reference compound]
3. COc1ccc2cc3[n+](cc2c1OCCCCCNc1nc2ccc(I)cc2s1)CCc1cc2c(cc1-3)OCO2 [BBD 9]
4. COc1ccc2cc3[n+](cc2c1OCCCCCNc1nc2c(F)cc(F)cc2s1)CCc1cc2c(cc1-3)OCO2 [BBD 11]
5. COc1ccc2cc3[n+](cc2c1OCCCCCNc1nc2ccc(C)cc2s1)CCc1cc2c(cc1-3)OCO2 [BBD 4]
6. COc1ccc2cc3[n+](cc2c1OCCCCCNc1nc2ccc(C(F)(F)F)cc2s1)CCc1cc2c(cc1-3)OCO2 [BBD 12]
7. COc1ccc2cc3[n+](cc2c1OC)CCc1cc2c(cc1-3)OCO2 [BERBERINE, Berberine]
8. COc1ccc2cc3[n+](cc2c1OCCCCCNc1nc2ccc(F)cc2s1)CCc1cc2c(cc1-3)OCO2 [BBD 10]

## Output
[81.4, 55.9, 69.8, 85.1, 43.2, 67.7, 60.8, 64.6]

## Input Reported IC50, compound COc1ccc2cc3[n+](cc2c1OCCCCCNc1nc2ccc(C(=O)O)cc2s1)CCc1cc2c(cc1-3)OCO2 [BBD 3] : ____
## Output 53.9

====

- subject_of_test: influenza virus neuraminidase (Influenza A virus)
- test: Viral neuraminidase inhibition assay (NA-Star kit)
- Assay type: biochemical, influenza A/PR/8/34 virus
- condition_notes: at 10 μg/mL; (Treatment/Virus) × 100, remaining activity
property: activity at 10 µg/mL (%)
Numbers only, in %.

{"columns": ["compound", "unit", "activity at 10 µg/mL"],
 "data": [
  ["CCOC(=O)C1=C[C@@H](OC(CC)CC)[C@H](NC(C)=O)[C@@H](N)C1 [OSELTAMIVIR, Oseltamivir phosphate, reference compound]", "%", 18.3]
]}

Value sought for every listed compound: activity at 10 µg/mL.
1. COc1ccc2cc3[n+](cc2c1OCCCCCNc1nc2c(F)cc(F)cc2s1)CCc1cc2c(cc1-3)OCO2
2. COc1ccc2cc3[n+](cc2c1OCCCCCNc1nc2ccccc2s1)CCc1cc2c(cc1-3)OCO2
3. COc1ccc2cc3[n+](cc2c1OCCCCCNc1nc2ccc(Cl)cc2s1)CCc1cc2c(cc1-3)OCO2

## Output
1: 18.4; 2: 15.6; 3: 14.5
